Known pAMPK/AMPK (%) of a selection of compounds
Target: AdipoR1 (Homo sapiens)
Sequence (Q96A54 1-375): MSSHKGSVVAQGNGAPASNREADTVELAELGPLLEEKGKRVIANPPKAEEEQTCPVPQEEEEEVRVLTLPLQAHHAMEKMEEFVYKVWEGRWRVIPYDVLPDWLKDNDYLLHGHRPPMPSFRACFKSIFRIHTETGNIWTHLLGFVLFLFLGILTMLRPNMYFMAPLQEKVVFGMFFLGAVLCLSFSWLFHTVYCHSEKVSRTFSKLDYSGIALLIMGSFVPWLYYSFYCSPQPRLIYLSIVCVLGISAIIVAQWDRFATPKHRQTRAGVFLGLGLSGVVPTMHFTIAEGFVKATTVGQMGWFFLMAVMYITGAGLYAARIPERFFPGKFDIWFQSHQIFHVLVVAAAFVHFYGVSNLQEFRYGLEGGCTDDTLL
Experiment: Measurement of AMPK phosphorylation ability (Assay 1), HEK 293T cells, Western blotting
Type: cell-based
Design: HEK 293T cells (ATCC; CRL-3216, medium; host or cells: HEK 293T
Conditions: 50 μM, 10 minutes
Kindly format the answer as number then unit.

Below are worked cases with known answers.
pAMPK/AMPK (%) for CCC(=O)c1ccc(OCC(=O)NC2CCN(Cc3ccccc3C)CC2)cc1 [Compound 16] is 46.30%

pAMPK/AMPK (%) for Cc1cc(OCC(=O)NC2CCN(C(N)=O)CC2)ccc1C(C)C [Compound 3] is 44.32%

pAMPK/AMPK (%) for CCCOc1ccc(OCC(=O)NC2CCN(C(=O)c3ccc(C)cc3)CC2)cc1 [Compound 42] is 89.62%

pAMPK/AMPK (%) for CC(C)(C)c1ccc(C(=O)NCCC(=O)N2CCN(Cc3cccc4cccnc34)CC2)cc1 [Compound 53] is 81.80%

pAMPK/AMPK (%) for O=C(COc1ccc(N2CCCC2=O)cc1)NC1CCN(C(=O)c2ccccc2F)CC1 [Compound 25] is 42.87%

pAMPK/AMPK (%) for Cc1cccc(CN2CCC(NC(=O)COc3ccc(C4SCCCS4)cc3)CC2)c1 [Compound 28] is 78.89%

pAMPK/AMPK (%) for O=C(NCCC(=O)N1CCN(Cc2cccc(C(F)(F)F)c2)CC1)c1ccc([N+](=O)[O-])cc1 [Compound 67] is 70.70%

Query compound follows.
pAMPK/AMPK (%) for O=C(COc1ccc(Cl)cc1)NC1CCN(Cc2ccc(Cl)c(Cl)c2)CC1 [Compound 33] is 84.10%

* * *

Molecular target: AdipoR1 (Homo sapiens, UniProt Q96A54)
Sequence (Q96A54 1-375): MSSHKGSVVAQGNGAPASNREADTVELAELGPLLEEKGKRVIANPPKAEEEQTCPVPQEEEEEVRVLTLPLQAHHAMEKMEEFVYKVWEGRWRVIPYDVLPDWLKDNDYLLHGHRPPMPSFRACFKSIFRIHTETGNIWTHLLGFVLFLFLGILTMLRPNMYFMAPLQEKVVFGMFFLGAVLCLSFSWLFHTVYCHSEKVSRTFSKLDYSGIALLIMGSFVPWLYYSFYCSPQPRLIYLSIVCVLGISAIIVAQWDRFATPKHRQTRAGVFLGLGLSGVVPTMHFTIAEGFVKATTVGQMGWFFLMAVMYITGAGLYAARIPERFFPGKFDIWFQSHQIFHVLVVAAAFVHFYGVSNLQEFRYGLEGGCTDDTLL
Assay: Measurement of AMPK phosphorylation ability (Assay 1), HEK 293T cells, Western blotting
Format: cell-based
Design: HEK 293T cells (ATCC; CRL-3216, medium; host or cells: HEK 293T
Details: 50 μM, 10 minutes
quantity_name: pAMPK/AMPK (%)
Note: unit % is implicit; provide only the numeric part.

Below are worked cases with known answers.
Tested system AdipoR1 (Homo sapiens, UniProt Q96A54); pAMPK/AMPK (%) recorded for `CCOc1ccc(C(=O)N2CCC(NC(=O)COc3ccc(N4CCCC4=O)cc3)CC2)cc1` was 37.30

Tested system AdipoR1 (Homo sapiens, UniProt Q96A54); pAMPK/AMPK (%) recorded for CCc1ccc(OCC(=O)NC2CCN(C(C)c3ccccc3)CC2)cc1 (centres unmarked) was 80.60

Tested system AdipoR1 (Homo sapiens, UniProt Q96A54); pAMPK/AMPK (%) recorded for `Cc1ccccc1CN1CCC(NC(=O)COc2ccc(C(C)C)cc2)CC1` was 63.92

***
Tested system AdipoR1 (Homo sapiens, UniProt Q96A54); pAMPK/AMPK (%) recorded for `CCOc1ccc(CN2CCN(C(=O)CCNC(=O)c3ccc(F)cc3Cl)CC2)cc1` was 76.51

Tested system AdipoR1 (Homo sapiens, UniProt Q96A54); pAMPK/AMPK (%) recorded for `O=C(COc1ccc(Oc2ccccc2)cc1)NC1CCN(Cc2ccccc2)CC1` was 84.19

Tested system AdipoR1 (Homo sapiens, UniProt Q96A54); pAMPK/AMPK (%) recorded for `COc1cc(C(C)=O)ccc1OCC(=O)NC1CCN(Cc2ccc(Cl)c(Cl)c2)CC1` was 88.18

Tested system AdipoR1 (Homo sapiens, UniProt Q96A54); pAMPK/AMPK (%) recorded for `CCOc1ccc(C(=O)N2CCC(NC(=O)COc3ccc([N+](=O)[O-])cc3)CC2)cc1` was 67.26

Tested system AdipoR1 (Homo sapiens, UniProt Q96A54); pAMPK/AMPK (%) recorded for `CCOc1ccccc1C(=O)N1CCC(NC(=O)OCc2ccc([N+](=O)[O-])cc2)CC1` was 49.81

* * *

Molecular target: AdipoR1 (Homo sapiens, UniProt Q96A54)
Sequence (Q96A54 1-375): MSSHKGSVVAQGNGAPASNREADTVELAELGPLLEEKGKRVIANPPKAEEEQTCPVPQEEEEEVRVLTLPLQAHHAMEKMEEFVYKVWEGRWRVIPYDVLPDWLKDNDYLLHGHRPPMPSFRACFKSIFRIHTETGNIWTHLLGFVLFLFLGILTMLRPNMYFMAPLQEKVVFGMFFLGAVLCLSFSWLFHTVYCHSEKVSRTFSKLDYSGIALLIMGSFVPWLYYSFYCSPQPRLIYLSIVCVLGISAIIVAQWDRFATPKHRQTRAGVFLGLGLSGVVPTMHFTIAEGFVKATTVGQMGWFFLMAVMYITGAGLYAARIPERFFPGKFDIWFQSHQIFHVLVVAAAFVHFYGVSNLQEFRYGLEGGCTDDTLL
Assay: Measurement of AMPK phosphorylation ability (Assay 1), HEK 293T cells, Western blotting
Assay type: cell-based
Set-up: HEK 293T cells (ATCC; CRL-3216, medium; host or cells: HEK 293T
Conditions: 25 μM, 10 minutes
Outcome: t for pAMPK/AMPK (%) of at least 80%; f for anything lower.

Past entries and their recorded results:
Please tell me: is the compound COc1ccccc1CN1CCN(C(=O)CCNC(=O)c2ccc(Cl)cc2)CC1 [Compound 57] at or over 80% in terms of pAMPK/AMPK (%)?
f

Please tell me: is the compound Cc1ccc(C(=O)N2CCC(NC(=O)COc3ccc(C4SCCCS4)cc3)CC2)cc1 [Compound 29] at or over 80% in terms of pAMPK/AMPK (%)?
f

Please tell me: is the compound COc1ccc(CN2CCN(C(=O)CCNC(=O)c3ccc(F)cc3F)CC2)cc1OC [Compound 62] at or over 80% in terms of pAMPK/AMPK (%)?
f

Please tell me: is the compound CCC(=O)c1ccc(OCC(=O)NC2CCN(Cc3ccc(Cl)c(Cl)c3)CC2)cc1 [Compound 17] at or over 80% in terms of pAMPK/AMPK (%)?
t

Could you now look at the following compound, please?
Please tell me: is the compound NC(=O)c1ccc(OCC(=O)NC2CCN(Cc3ccc(F)c(F)c3)CC2)cc1 [Compound 20] at or over 80% in terms of pAMPK/AMPK (%)?
f

* * *

biological target: AdipoR1 (Homo sapiens); assay: Measurement of AMPK phosphorylation ability (Assay 2), HEK 293T cells with unrelated or AdipoR1 siRNA; assay type: cell-based; design: HEK 293T cells (ATCC; CRL-3216, medium; host or cells: HEK 293T; settings: AdipoR1 siRNA
Known pAMPK/AMPK (ratio) siRNA, AdipoR1 siRNA of a selection of compounds
Kindly format the answer as number then unit.

Below are worked cases with known answers.
pAMPK/AMPK (ratio) siRNA, AdipoR1 siRNA for Cc1ccccc1CN1CCC(NC(=O)COc2ccc(Oc3ccccn3)cc2)CC1 [Compound 46] is 2.74 ratio

pAMPK/AMPK (ratio) siRNA, AdipoR1 siRNA for O=C(NCCC(=O)N1CCN(Cc2cccc(O)c2)CC1)c1ccc2ccccc2c1 [Compound 70] is 2.46 ratio

pAMPK/AMPK (ratio) siRNA, AdipoR1 siRNA for O=C(COc1ccc(F)cc1)NC1CCN(Cc2ccc(Cl)c(Cl)c2)CC1 [Compound 32] is 4.14 ratio

pAMPK/AMPK (ratio) siRNA, AdipoR1 siRNA for CC(C)(C)c1ccc(C(=O)NCCC(=O)N2CCN(Cc3cccc4cccnc34)CC2)cc1 [Compound 53] is 2.04 ratio

***
pAMPK/AMPK (ratio) siRNA, AdipoR1 siRNA for Cc1ccc(OCC(=O)NC2CCN(Cc3ccc(Cl)c(Cl)c3)CC2)cc1 [Compound 30] is 2.35 ratio
